- assayed-target: Cytochrome P450 3A4 (Homo sapiens)
- Sequence (P08684 whole entry): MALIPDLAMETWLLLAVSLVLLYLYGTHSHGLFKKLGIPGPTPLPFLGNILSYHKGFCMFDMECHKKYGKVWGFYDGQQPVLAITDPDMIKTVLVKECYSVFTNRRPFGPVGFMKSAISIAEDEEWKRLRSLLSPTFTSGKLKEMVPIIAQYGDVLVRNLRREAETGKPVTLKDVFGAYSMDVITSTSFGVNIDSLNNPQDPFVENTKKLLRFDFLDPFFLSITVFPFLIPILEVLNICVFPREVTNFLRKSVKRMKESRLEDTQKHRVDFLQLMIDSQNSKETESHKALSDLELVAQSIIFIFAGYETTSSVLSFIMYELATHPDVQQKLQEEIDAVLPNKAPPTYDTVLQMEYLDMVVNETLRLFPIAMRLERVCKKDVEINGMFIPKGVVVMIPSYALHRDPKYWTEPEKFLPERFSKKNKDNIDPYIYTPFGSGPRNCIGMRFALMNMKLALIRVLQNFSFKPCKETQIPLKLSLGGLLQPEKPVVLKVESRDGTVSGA
- protocol-summary: Inhibition of human CYP3A4 by luminometry
result-type: pEC50
Give bare numbers, as −log10 of the molar value.

Example compounds with recorded pEC50:
compound: COC(=O)N[C@@H](C(=O)N1CCC[C@H]1C(=O)Nc1ccc(-c2ccc(NC(=O)[C@@H]3CCCN3C(=O)[C@H](NC(=O)OC)c3ccccc3)cc2C(F)(F)F)c(C(F)(F)F)c1)c1ccccc1 (stereo in doubt; form 1)
result: 5.33
//
compound: COC(=O)N[C@@H](C(=O)N1CCC[C@H]1C(=O)Nc1ccc(-c2ccc(NC(=O)[C@@H]3CCCN3C(=O)[C@H](NC(=O)OC)c3ccccc3)cc2Cl)c(Cl)c1)c1ccccc1
result: 5.40
//
compound: COC(=O)N[C@@H](C(=O)N1CCC[C@H]1C(=O)Nc1ccc(-c2ccc(NC(=O)[C@@H]3CCCN3C(=O)[C@H](NC(=O)OC)c3ccccc3)cc2F)c(F)c1)c1ccccc1
result: 5.61

Please look at the items below and tell me pEC50 for each one, in order.
1. COC(=O)N[C@@H](C(=O)N1CCC[C@H]1C(=O)Nc1ccc2c(c1)C(C)(C)c1cc(NC(=O)[C@@H]3CCCN3C(=O)[C@H](NC(=O)OC)c3ccccc3)ccc1-2)c1ccccc1
2. COC(=O)N[C@@H](C(=O)N1CCC[C@H]1C(=O)Nc1ccc2c(c1)C(F)(F)c1cc(NC(=O)[C@@H]3CCCN3C(=O)[C@H](NC(=O)OC)c3ccccc3)ccc1-2)c1ccccc1

1. 5.99
2. 6.01

* * *

Could you please report measured inhibition at 10 µM for the items listed next?
- assayed-target: hERG (KCNH2) (Homo sapiens, UniProt Q12809)
- Sequence (Q12809 whole entry): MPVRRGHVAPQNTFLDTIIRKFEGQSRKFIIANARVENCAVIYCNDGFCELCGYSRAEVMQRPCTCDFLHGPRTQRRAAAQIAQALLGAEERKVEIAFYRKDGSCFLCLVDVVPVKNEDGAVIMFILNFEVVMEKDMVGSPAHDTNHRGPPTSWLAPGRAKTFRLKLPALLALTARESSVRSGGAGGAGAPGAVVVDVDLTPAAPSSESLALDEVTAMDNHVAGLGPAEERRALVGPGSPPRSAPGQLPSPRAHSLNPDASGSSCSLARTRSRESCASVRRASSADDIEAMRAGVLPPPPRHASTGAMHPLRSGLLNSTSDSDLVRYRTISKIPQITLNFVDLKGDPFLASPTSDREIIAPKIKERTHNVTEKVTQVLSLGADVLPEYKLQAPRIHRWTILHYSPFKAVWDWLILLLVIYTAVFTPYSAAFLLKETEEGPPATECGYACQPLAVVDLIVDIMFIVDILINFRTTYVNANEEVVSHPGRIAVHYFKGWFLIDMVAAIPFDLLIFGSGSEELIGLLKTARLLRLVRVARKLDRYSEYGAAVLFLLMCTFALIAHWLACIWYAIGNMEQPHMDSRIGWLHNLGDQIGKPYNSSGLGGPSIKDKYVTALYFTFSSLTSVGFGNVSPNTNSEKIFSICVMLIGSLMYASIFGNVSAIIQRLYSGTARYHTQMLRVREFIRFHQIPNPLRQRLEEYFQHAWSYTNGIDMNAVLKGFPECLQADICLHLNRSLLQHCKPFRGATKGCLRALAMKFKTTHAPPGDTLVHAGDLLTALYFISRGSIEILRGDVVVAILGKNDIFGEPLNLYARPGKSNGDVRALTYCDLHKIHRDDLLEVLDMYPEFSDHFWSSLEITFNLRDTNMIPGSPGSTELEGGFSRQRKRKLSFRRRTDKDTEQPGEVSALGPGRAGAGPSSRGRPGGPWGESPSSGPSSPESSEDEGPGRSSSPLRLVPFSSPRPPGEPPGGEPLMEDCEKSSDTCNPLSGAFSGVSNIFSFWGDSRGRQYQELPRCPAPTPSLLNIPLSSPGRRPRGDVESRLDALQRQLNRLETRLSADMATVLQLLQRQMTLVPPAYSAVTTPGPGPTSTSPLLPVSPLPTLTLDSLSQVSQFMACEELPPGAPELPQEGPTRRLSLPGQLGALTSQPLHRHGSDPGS
- protocol-summary: Inhibition of human ERG at 10 uM by fluorescence polarization assay based ligand binding assay

Example cases with answers are listed next.
compound: COC(=O)N[C@@H](C(=O)N1CCC[C@H]1C(=O)Nc1ccc2c(c1)C(F)(F)c1cc(NC(=O)[C@@H]3CCCN3C(=O)[C@H](NC(=O)OC)c3ccccc3)ccc1-2)c1ccccc1
result: 39.1%
--
compound: COC(=O)N[C@@H](C(=O)N1CCC[C@H]1C(=O)Nc1ccc(-c2ccc(NC(=O)[C@@H]3CCCN3C(=O)[C@H](NC(=O)OC)c3ccccc3)cc2C(F)(F)F)c(C(F)(F)F)c1)c1ccccc1 (stereo in doubt; form 1)
result: 7.98%
--
compound: COC(=O)N[C@@H](C(=O)N1CCC[C@H]1C(=O)Nc1ccc2c(c1)C(C)(C)c1cc(NC(=O)[C@@H]3CCCN3C(=O)[C@H](NC(=O)OC)c3ccccc3)ccc1-2)c1ccccc1
result: 25.7%

State recorded inhibition at 10 µM for all listed compounds.
1. COC(=O)N[C@@H](C(=O)N1CCC[C@H]1C(=O)Nc1ccc(-c2ccc(NC(=O)[C@@H]3CCCN3C(=O)[C@H](NC(=O)OC)c3ccccc3)cc2Cl)c(Cl)c1)c1ccccc1
2. COC(=O)N[C@@H](C(=O)N1CCC[C@H]1C(=O)Nc1ccc(-c2ccc(NC(=O)[C@@H]3CCCN3C(=O)[C@H](NC(=O)OC)c3ccccc3)cc2F)c(F)c1)c1ccccc1

1. 5.8%
2. < 1%

* * *

- protocol-summary: Stability in rat plasma assessed as compound remaining t 100 uM after 0.5 hrs by LC-MS/MS method
- Type: ADME, cell-free
- condition-set: read-out: Stability
result-type: remaining at 0.5 h, 100 µM (%)
One number for each entry, in %.

compound: COC(=O)N[C@@H](C(=O)N1CCC[C@H]1C(=O)Nc1ccc(-c2ccc(NC(=O)[C@@H]3CCCN3C(=O)[C@H](NC(=O)OC)c3ccccc3)cc2C(F)(F)F)c(C(F)(F)F)c1)c1ccccc1 (stereo in doubt; form 1)
unit-descriptor: %
remaining at 0.5 h, 100 µM: 93

Report remaining at 0.5 h, 100 µM for every entry below.
1. COC(=O)N[C@@H](C(=O)N1CCC[C@H]1C(=O)Nc1ccc(-c2ccc(NC(=O)[C@@H]3CCCN3C(=O)[C@H](NC(=O)OC)c3ccccc3)cc2Cl)c(Cl)c1)c1ccccc1
2. COC(=O)N[C@@H](C(=O)N1CCC[C@H]1C(=O)Nc1ccc(-c2ccc(NC(=O)[C@@H]3CCCN3C(=O)[C@H](NC(=O)OC)c3ccccc3)cc2F)c(F)c1)c1ccccc1

72
65

# credit: ChEMBL document CHEMBL3608246
